B1: library; numbered along this chain (parent)
chain: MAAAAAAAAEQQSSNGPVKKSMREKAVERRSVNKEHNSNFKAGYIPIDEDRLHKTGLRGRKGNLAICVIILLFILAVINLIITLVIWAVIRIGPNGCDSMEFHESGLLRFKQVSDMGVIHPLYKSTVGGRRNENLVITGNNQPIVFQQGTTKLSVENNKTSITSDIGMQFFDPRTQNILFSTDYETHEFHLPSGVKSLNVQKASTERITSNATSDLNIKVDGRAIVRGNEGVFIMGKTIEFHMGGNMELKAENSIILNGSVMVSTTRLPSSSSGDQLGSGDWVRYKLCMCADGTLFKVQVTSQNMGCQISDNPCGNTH

# Variants of: B1
# ASSAY_PROTOCOL: SGCB cell-surface expression functional score (HA stain, bin4 vs bin1, normalised to synonymous) (log10 ratio); higher = more cell-surface SGCB (functional)
MET means recorded SGCB cell-surface expression functional score (log10) is -0.03 or above; NOT MET means it is below -0.03.

{"MUTANT": "M1R", "CATEGORY": "NOT MET"}
{"MUTANT": "G231W", "CATEGORY": "NOT MET"}
{"MUTANT": "R91I", "CATEGORY": "NOT MET"}
{"MUTANT": "S161E", "CATEGORY": "MET"}
{"MUTANT": "K297E", "CATEGORY": "MET"}
{"MUTANT": "T126H", "CATEGORY": "MET"}
{"MUTANT": "A251P", "CATEGORY": "MET"}
{"MUTANT": "M289L", "CATEGORY": "NOT MET"}
{"MUTANT": "K297H", "CATEGORY": "MET"}
{"MUTANT": "F241T", "CATEGORY": "NOT MET"}
{"MUTANT": "V283Q", "CATEGORY": "NOT MET"}
{"MUTANT": "E185M", "CATEGORY": "NOT MET"}
{"MUTANT": "N134S", "CATEGORY": "MET"}
{"MUTANT": "P192V", "CATEGORY": "NOT MET"}
{"MUTANT": "N37T", "CATEGORY": "NOT MET"}
{"MUTANT": "S164W", "CATEGORY": "NOT MET"}
{"MUTANT": "T294F", "CATEGORY": "MET"}
{"MUTANT": "V118A", "CATEGORY": "MET"}
{"MUTANT": "Q276Y", "CATEGORY": "MET"}
{"MUTANT": "M235D", "CATEGORY": "NOT MET"}
{"MUTANT": "N312P", "CATEGORY": "NOT MET"}
{"MUTANT": "G222S", "CATEGORY": "MET"}
{"MUTANT": "T83L", "CATEGORY": "MET"}
{"MUTANT": "G194V", "CATEGORY": "NOT MET"}
{"MUTANT": "Q148G", "CATEGORY": "MET"}
{"MUTANT": "N177W", "CATEGORY": "NOT MET"}
{"MUTANT": "D172E", "CATEGORY": "MET"}
{"MUTANT": "K54D", "CATEGORY": "NOT MET"}
{"MUTANT": "E185A", "CATEGORY": "MET"}
{"MUTANT": "S21V", "CATEGORY": "MET"}
{"MUTANT": "Q11H", "CATEGORY": "MET"}
{"MUTANT": "R284C", "CATEGORY": "MET"}
{"MUTANT": "K54G", "CATEGORY": "MET"}
{"MUTANT": "T163E", "CATEGORY": "NOT MET"}
{"MUTANT": "K19W", "CATEGORY": "MET"}
{"MUTANT": "T301R", "CATEGORY": "NOT MET"}
{"MUTANT": "D50E", "CATEGORY": "MET"}
{"MUTANT": "T317H", "CATEGORY": "NOT MET"}
{"MUTANT": "F102I", "CATEGORY": "NOT MET"}
{"MUTANT": "V145F", "CATEGORY": "NOT MET"}
{"MUTANT": "D183N", "CATEGORY": "NOT MET"}
{"MUTANT": "D221I", "CATEGORY": "MET"}
{"MUTANT": "D48P", "CATEGORY": "MET"}
{"MUTANT": "L135H", "CATEGORY": "NOT MET"}
{"MUTANT": "L71M", "CATEGORY": "MET"}
{"MUTANT": "T265L", "CATEGORY": "MET"}
{"MUTANT": "L122Y", "CATEGORY": "MET"}
{"MUTANT": "Q276R", "CATEGORY": "NOT MET"}
{"MUTANT": "T151P", "CATEGORY": "NOT MET"}
{"MUTANT": "R91M", "CATEGORY": "NOT MET"}
{"MUTANT": "Q11E", "CATEGORY": "MET"}
{"MUTANT": "G274N", "CATEGORY": "NOT MET"}
{"MUTANT": "L52N", "CATEGORY": "MET"}
{"MUTANT": "I137E", "CATEGORY": "NOT MET"}
{"MUTANT": "V27P", "CATEGORY": "NOT MET"}
{"MUTANT": "S181E", "CATEGORY": "NOT MET"}
{"MUTANT": "I82W", "CATEGORY": "NOT MET"}
{"MUTANT": "E252G", "CATEGORY": "MET"}
{"MUTANT": "Q11L", "CATEGORY": "MET"}
{"MUTANT": "S254M", "CATEGORY": "MET"}
{"MUTANT": "K34T", "CATEGORY": "MET"}
{"MUTANT": "F241H", "CATEGORY": "NOT MET"}
{"MUTANT": "N37R", "CATEGORY": "NOT MET"}
{"MUTANT": "R23A", "CATEGORY": "NOT MET"}
{"MUTANT": "I66L", "CATEGORY": "NOT MET"}
{"MUTANT": "A65K", "CATEGORY": "MET"}
{"MUTANT": "C67P", "CATEGORY": "MET"}
{"MUTANT": "I81F", "CATEGORY": "NOT MET"}
{"MUTANT": "K219R", "CATEGORY": "MET"}
{"MUTANT": "C288W", "CATEGORY": "NOT MET"}
{"MUTANT": "Q148D", "CATEGORY": "NOT MET"}
{"MUTANT": "T150R", "CATEGORY": "NOT MET"}
{"MUTANT": "S214K", "CATEGORY": "NOT MET"}
{"MUTANT": "I119V", "CATEGORY": "NOT MET"}
